- EXPERIMENTAL SYSTEM: MELK (Homo sapiens)
- Sequence (Q14680 whole entry, looked up): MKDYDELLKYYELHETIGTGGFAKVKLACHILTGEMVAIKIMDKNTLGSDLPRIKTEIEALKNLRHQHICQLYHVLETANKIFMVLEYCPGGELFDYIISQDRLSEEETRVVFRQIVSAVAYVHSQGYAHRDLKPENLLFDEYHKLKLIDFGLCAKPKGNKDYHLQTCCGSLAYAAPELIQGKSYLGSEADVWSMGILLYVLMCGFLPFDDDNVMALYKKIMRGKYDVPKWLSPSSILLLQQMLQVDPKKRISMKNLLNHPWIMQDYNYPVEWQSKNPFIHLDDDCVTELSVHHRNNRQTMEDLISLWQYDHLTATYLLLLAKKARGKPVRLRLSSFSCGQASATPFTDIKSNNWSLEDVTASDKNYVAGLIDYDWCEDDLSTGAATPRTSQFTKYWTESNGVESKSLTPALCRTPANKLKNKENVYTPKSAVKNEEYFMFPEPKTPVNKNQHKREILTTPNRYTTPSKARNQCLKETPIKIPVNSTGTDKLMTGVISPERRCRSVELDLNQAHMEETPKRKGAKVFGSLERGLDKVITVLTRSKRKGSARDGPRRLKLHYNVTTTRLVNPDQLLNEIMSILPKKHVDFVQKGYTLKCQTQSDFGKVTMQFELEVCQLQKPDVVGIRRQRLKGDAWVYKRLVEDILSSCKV
- TEST SUMMARY: Kinase assay: MELK activity, phosphorylation of FITC-labeled histone H3 peptide measured by IMAP fluorescence polarization
- Type: biochemical
- EXPERIMENTAL CONDITIONS: 50 micro-M ATP, FITC-labeled histone H3 peptide substrate, IMAP fluorescence polarization; read-out: IC50 (μM) (kinase assay)
READOUT NAME: IC50
In your response, put the unit directly after the numeric value.

CN1CCN(Cc2ccc(Nc3c(C(=O)C4CC4)cnc4ccc(-c5ccc(O)c(Cl)c5)cc34)cc2)CC1: 0.019 µM

Incoming: # lookup: MELK (Homo sapiens) IC50, key = CCN(CC)C1CCC(Nc2c(C(=O)C3CCCC3)cnc3ccc(-c4cc(F)c(O)c(Cl)c4)cc23)CC1 (stereo not drawn)
Outgoing: 0.0092 µM

Incoming: # lookup: MELK (Homo sapiens) IC50, key = CN(C)Cc1ccc(Nc2c(S(C)(=O)=O)cnc3ccc(-c4cc(F)c(O)c(Cl)c4)cc23)cc1
Outgoing: 0.016 µM

Incoming: # lookup: MELK (Homo sapiens) IC50, key = COc1cc(-c2ccc3ncc(C(=O)C4CC4)c(Nc4ccc(CN5CCN(C)CC5)cc4)c3c2)ccc1O
Outgoing: 0.017 µM

Incoming: # lookup: MELK (Homo sapiens) IC50, key = CN(C)[C@H]1CC[C@H](Nc2c(C(=O)C3CC3)cnc3cc(F)c(-c4cc(F)c(O)c(F)c4)cc23)CC1
Outgoing: 0.042 µM

Incoming: # lookup: MELK (Homo sapiens) IC50, key = CN(C)Cc1ccc(Nc2c(C#N)cnc3ccc(-c4cc(F)c(O)c(Cl)c4)cc23)cc1
Outgoing: 0.056 µM
